Test: recombinant UMI read abundance after kanamycin selection (control-corrected) (log10(CPM+1)); higher = more efficient recombination; extreme values may be limits of the assay; sequences stand for … in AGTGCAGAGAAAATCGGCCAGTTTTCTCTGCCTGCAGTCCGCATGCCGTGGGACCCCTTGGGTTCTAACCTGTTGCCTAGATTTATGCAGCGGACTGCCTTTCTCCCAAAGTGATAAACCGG…AGGTTGGTTTCACT; site = the 11-nt donor;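 also: IS621 bridge recombinase in Escherichia coli cells against a fixed T5 target plasmid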
MEASUREMENT TYPE: recombinant UMI read abundance (log10)
Please give the numeric answer without any surrounding text.

Prompt line: Entry under review: CTGCGTTCATGGACCGGTTTTCCCGGTAATCCGTATTTGAG (site CTGCGTTCTCT) . Reported recombinant UMI read abundance (log10)?
Response line: 2.26

Prompt line: Entry TTTCCGGCATGGACCGGTTTTCCCGGTAATCCGTATTTGCT (site TTTCCGGCTAG) please
Response line: 0.016

Prompt line: Entry GTTTCAACATGGACCGGTTTTCCCGGTAATCCGTATTTGAC (site GTTTCAACTGT) please
Response line: 0.631

Prompt line: Entry GTTCGAGCATGGACCGGTTTTCCCGGTAATCCGTATTTGCG (site GTTCGAGCTAG) please
Response line: 0

Prompt line: Entry CCGTAGCCATGGACCGGTTTTCCCGGTAATCCGTATTTGCC (site CCCTAGCCTGG) please
Response line: 0

Further cases:
Prompt line: Entry under review: GCGAAACCATGGACCGGTTTTCCCGGTAATCCGTATTTGGG (site GCGAAACCTCC) . Reported recombinant UMI read abundance (log10)?
Response line: 0

Prompt line: Entry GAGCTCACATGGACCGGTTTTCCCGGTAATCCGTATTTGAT (site GAGCTCACTAG) please
Response line: 0.209

Prompt line: Entry GTATTCACATGGACCGGTTTTCCCGGTAATCCGTATTTGTA (site GTATGCACTTA) please
Response line: 0.0233

Prompt line: Entry TAGGAAGCATGGACCGGTTTTCCCGGTAATCCGTATTTGCG (site TAGGAATCTCG) please
Response line: 1.85

Prompt line: Entry GAAAGCCCATGGACCGGTTTTCCCGGTAATCCGTATTTGAC (site GAAAGCCCTGT) please
Response line: 0

Prompt line: Entry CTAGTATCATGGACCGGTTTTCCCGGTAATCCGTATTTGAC (site CTGCTATCTGT) please
Response line: 0

Prompt line: Entry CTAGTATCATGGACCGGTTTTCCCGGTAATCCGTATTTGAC (site CTAGTAGCTTT) please
Response line: 0.0305

Prompt line: Entry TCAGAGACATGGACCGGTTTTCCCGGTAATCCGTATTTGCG (site TCAGAAACTCG) please
Response line: 1.73

Prompt line: Entry AGGCGAGCATGGACCGGTTTTCCCGGTAATCCGTATTTGCG (site AGGCGAGCTCG) please
Response line: 2.02

Prompt line: Entry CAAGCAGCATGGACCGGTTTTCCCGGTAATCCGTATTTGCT (site CAAGCAACTAG) please
Response line: 1.47
